Source of measurements: ChEMBL document CHEMBL5724914

Details: human gut metagenome, 24 h, 2 µM; also: call rule not given here
Readout name: Bacterial Biotransformation

Compound | Result
CN(C)CCOC(C)(c1ccccc1)c1ccccn1.O=C(O)CCC(=O)O (stereo not drawn) [DOXYLAMINE SUCCINATE] | Compound NOT metabolized
CCN(CC)CCNC(=O)c1ccc(NC(C)=O)cc1 [ACECAINIDE] | Compound NOT metabolized
CC(C)c1c(CN(C)C(C)Cc2ccccc2)n(C)n(-c2ccccc2)c1=O (stereo not drawn) | Compound metabolized
Cc1cc(C)cc(OCC2CNC(=O)O2)c1 (stereo not drawn) | Compound NOT metabolized
COC(=O)[C@H](c1ccccc1Cl)N1CCc2sccc2C1.O=S(=O)(O)O [CLOPIDOGREL BISULFATE] | Compound metabolized
CC(=O)OCC(=O)NCCCOc1cccc(CN2CCCCC2)c1 [ROXATIDINE ACETATE] | Compound metabolized
COc1ccc2c(c1)c(CC(=O)O)c(C)n2C(=O)c1ccc(Cl)cc1 | Compound metabolized
COc1ccc(/C=C/C(=O)Nc2ccccc2C(=O)O)cc1OC | Compound NOT metabolized
C=CC[C@@H]1/C=C(\C)C[C@H](C)C[C@H](OC)[C@H]2O[C@@](O)(C(=O)C(=O)N3CCCC[C@H]3C(=O)O[C@H](/C(C)=C/[C@@H]3CC[C@@H](O)[C@H](OC)C3)[C@H](C)[C@@H](O)CC1=O)[C@H](C)C[C@@H]2OC.O | Compound NOT metabolized
CN1CCC(OC(c2ccccc2)c2ccccc2)CC1 | Compound NOT metabolized
CN(C)C(=O)Oc1cccc([N+](C)(C)C)c1.[Br-] [NEOSTIGMINE BROMIDE] | Compound NOT metabolized
CC(=O)Nc1ccc(OC(C)=O)cc1 [DIACETAMATE] | Compound metabolized
COc1ccc(C(CN(C)C)C2(O)CCCCC2)cc1 (stereo not drawn) | Compound NOT metabolized
CN1CCC[C@@H]1CCO[C@](C)(c1ccccc1)c1ccc(Cl)cc1.O=C(O)/C=C/C(=O)O [CLEMASTINE FUMARATE] | Compound NOT metabolized
N[C@@H](Cc1ccc(N(CCCl)CCCl)cc1)C(=O)O | Compound NOT metabolized
COCCCC/C(=N\OCCN)c1ccc(C(F)(F)F)cc1.O=C(O)/C=C\C(=O)O [FLUVOXAMINE MALEATE] | Compound NOT metabolized
CCOC(=O)C1=C(C)NC(C)=C(C(=O)OC)C1c1cccc([N+](=O)[O-])c1 (stereo not drawn) | Compound metabolized
CCCN(CCC)CCc1cccc2c1CC(=O)N2 | Compound NOT metabolized

----------
Assay: The drug is tested on Z-028 corresponding to mouse gut metagenome with ENA study accession number: PRJEB37062 and ENA sample accession number: ERS12561827 for biotransformation under anaerobic condition. The drug concentrations were measured over 9 timepoints collected between 0 and 24 hours of incubation by liquid-chromatography-coupled mass spectrometry (LC–MS)
Conditions: 2 µM

Molecule | Bacterial Biotransformation
O=C(NC(Cc1cc(=O)[nH]c2ccccc12)C(=O)O)c1ccc(Cl)cc1 (centres undefined) [REBAMIPIDE] | Compound NOT metabolized
CCOC(=O)[C@H](CCc1ccccc1)N[C@@H](C)C(=O)N1Cc2ccccc2C[C@H]1C(=O)O | Compound NOT metabolized
CCc1oc2ccccc2c1C(=O)c1cc(Br)c(O)c(Br)c1 | Compound metabolized
CCCN1C[C@H](CSC)C[C@@H]2c3cccc4[nH]cc(c34)C[C@H]21.CS(=O)(=O)O [PERGOLIDE MESYLATE] | Compound NOT metabolized
CCN1CCCC1CNC(=O)c1cc(S(=O)(=O)CC)c(N)cc1OC (centres undefined) [AMISULPRIDE] | Compound NOT metabolized
COc1ccnc(C[S+]([O-])c2nc3ccc(OC(F)F)cc3[nH]2)c1OC (centres undefined) | Compound metabolized
CC(CCc1ccccc1)NCC(O)c1ccc(O)c(C(N)=O)c1 (centres undefined) | Compound NOT metabolized
COc1ccc(/C=C/C(=O)Nc2ccccc2C(=O)O)cc1OC | Compound NOT metabolized
CC(=O)Nc1ccc(OC(C)=O)cc1 [DIACETAMATE] | Compound metabolized
